B1: ATL3 (parent)
chain: FSFRYQQELEEEIKELYENFCKHN

Variants of: B1
TEST PROTOCOL: protein stability index of a GFP-peptide fusion (GPS, HEK-293T) (PSI 1-6); higher = more stable;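 note: lentivirally expressed fusions sorted by FACS into six bins by GFP to DsRed ratio, PSI derived from sequencing read proportions per bin multiplied by bin number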
RECORDED CONDITIONS: c terminus: a fixed tail appended
QUANTITY NAME: protein stability index
Simply state the number, no unit and no words.

The reported protein stability index of the variant `Q6V` was 2.11

The reported protein stability index of the variant `K22Q` was 2.93

The reported protein stability index of the variant `E10C` was 1.77

The reported protein stability index of the variant `Y17K` was 2.89

The reported protein stability index of the variant `H23C` was 1.84

The reported protein stability index of the variant `R4H` was 2.9

The reported protein stability index of the variant `E8S` was 1.89

The reported protein stability index of the variant `E12C` was 1.76

The reported protein stability index of the variant `E11S` was 2.58

The reported protein stability index of the variant `E8M` was 1.97

The reported protein stability index of the variant `K14G` was 2.37

The reported protein stability index of the variant `Y17V` was 3.33

The reported protein stability index of the variant `E8P` was 2.02

The reported protein stability index of the variant `F3P` was 3.79

The reported protein stability index of the variant `L9H` was 3.64

The reported protein stability index of the variant `K14L` was 1.49

The reported protein stability index of the variant `E12Q` was 2.53

The reported protein stability index of the variant `Q6Y` was 2.24

The reported protein stability index of the variant `I13Q` was 2.19

The reported protein stability index of the variant `E18F` was 1.21

The reported protein stability index of the variant `K14Y` was 1.62

The reported protein stability index of the variant `E18V` was 3.55

The reported protein stability index of the variant `K22W` was 1.35

The reported protein stability index of the variant `Y5H` was 2.84

The reported protein stability index of the variant `H23N` was 2.3

The reported protein stability index of the variant `F20G` was 2.81

The reported protein stability index of the variant `L16E` was 3.18

The reported protein stability index of the variant `E8G` was 2.68

The reported protein stability index of the variant `E18I` was 2.28

The reported protein stability index of the variant `L9Q` was 3.09

The reported protein stability index of the variant `Q6K` was 2.26

The reported protein stability index of the variant `I13K` was 2.79

// provenance: the supplement of paper PMC10567573
